# Tested on: NCI-H226
# MEASUREMENT_DESCRIPTION: NCI tumour cell line growth inhibition, 48 h
Active and inactive are the calls of the source. No stated cut-off is given here; in the data, active = GI50 up to about 1.1 µM and inactive = higher.
PROPERTY_LABEL: GI50

Exercise: Tell me its GI50 given O=C(CCc1cc(O)cc(O)c1)NCCc1cc(O)cc(OCc2ccccc2)c1 as the entry.
Solution: 62.7 µM (inactive)

Exercise: Tell me its GI50 given O=c1c2ccccc2[nH]n1Cc1ccccc1 as the entry.
Solution: > 100 µM (inactive)

Exercise: Tell me its GI50 given O=C1NC(c2ccc3ccccc3c2)Nc2ccccc21 (stereo not given) as the entry.
Solution: 32.1 µM (inactive)

Exercise: Tell me its GI50 given CC(=O)Oc1ccc2c(=O)c(C(C)=O)coc2c1 as the entry.
Solution: 83.9 µM (inactive)

Exercise: Tell me its GI50 given CC(=O)OCC1OC(OCCCOP(=S)(OCCC#N)OCC2OC(n3ccc(N)nc3=O)C(OC(=O)c3ccccc3)C2OC(=O)c2ccccc2)C(OC(C)=O)C(OC(C)=O)C1OC(C)=O (stereo not given) as the entry.
Solution: > 100 µM (inactive)

Exercise: Tell me its GI50 given COc1cc(C2CC(C)(N3CCOCC3)Oc3cc4c(cc32)OCO4)cc(OC)c1OC (stereo not given) as the entry.
Solution: 5.35 µM (inactive)

Exercise: Tell me its GI50 given Cc1ccc(/N=C2\C(=O)C3=C(OC(C)(C)CC3)c3ccccc32)cc1 as the entry.
Solution: 2.86 µM (inactive)

Exercise: Tell me its GI50 given CC(C)C(Nc1c2ccccc2[n+](C)c2ccccc12)C(=O)O (stereo not given) as the entry.
Solution: > 100 µM (inactive)

Exercise: Tell me its GI50 given CCOC(=O)c1oc2c(OC)cc(Cl)c3c2c1CCC3 as the entry.
Solution: 12.2 µM (inactive)

Exercise: Tell me its GI50 given CCOC(=O)CCC(NC(=O)c1ccc(Nc2cnc3cc(C(F)(F)F)ccc3n2)cc1)C(=O)OCC (stereo not given) as the entry.
Solution: > 79.6 µM (inactive)

---

# Tested on: DMS-114
# MEASUREMENT_DESCRIPTION: NCI tumour cell line growth inhibition, 48 h
The source made the active and inactive calls. Rule as the data show it: active = GI50 up to about 1.1 µM and inactive = higher.
PROPERTY_LABEL: GI50

Exercise: Tell me its GI50 given CCc1nc(N)nc(C(=O)NCCNC(=O)c2nc(N)nc(CC)c2C)c1C as the entry.
Solution: > 100 µM (inactive)

Exercise: Tell me its GI50 given CCC(O)C1Cc2c(C)cc3c(c2O1)C(=O)c1ccccc1C3=O (stereo unspecified) as the entry.
Solution: 25.4 µM (inactive)

Exercise: Tell me its GI50 given COc1ccc2nc(NC(=O)C(=O)C(C#N)c3ccc([N+](=O)[O-])cc3)sc2c1 (stereo unspecified) as the entry.
Solution: 43.3 µM (inactive)

Exercise: Tell me its GI50 given N/N=C(/Cc1nc2ccc(C(=O)c3ccccc3)cc2nc1O)C(=O)Nc1ccc([N+](=O)[O-])cc1[N+](=O)[O-] as the entry.
Solution: > 10 µM (inactive)

Exercise: Tell me its GI50 given COc1ccc([Se][Se]c2ccc(OC)cc2OC)c(OC)c1 as the entry.
Solution: 2.01 µM (inactive)

Exercise: Tell me its GI50 given O=C1COc2cc3c(cc2N1)SCC(=O)N3 as the entry.
Solution: > 100 µM (inactive)

Exercise: Tell me its GI50 given COc1cc(C(Cc2ccccc2)NC(C)=O)oc(=O)c1 (stereo unspecified) as the entry.
Solution: > 100 µM (inactive)

Exercise: Tell me its GI50 given CCOC(=O)C(=O)Nc1cccc(C)c1C as the entry.
Solution: > 100 µM (inactive)

Exercise: Tell me its GI50 given CCN(CC)c1oc(N(CC)CC)c(C(=O)Nc2ccccn2)c(=O)c1C(C)=O as the entry.
Solution: > 100 µM (inactive)

Exercise: Tell me its GI50 given O=S(=O)(c1ccccc1)n1cc(C[P+](c2ccccc2)(c2ccccc2)c2ccccc2)c2ccccc21 as the entry.
Solution: 3.37 µM (inactive)

Exercise: Tell me its GI50 given COC(=O)NC(=O)c1cn(C2CCCCC2)c(=O)[nH]c1=O as the entry.
Solution: > 100 µM (inactive)

Data provenance: ChEMBL document CHEMBL1201862
